tested on: HEK-CMV-Luc2-Hygro cells; assay: High-throughput genome-wide siRNA screen and validation screen for luciferase expression; type: cell-based, human; details: Table 4; primary screen, 72 h, negative control = 100%
Give per cell luciferase yield (%) for every item shown.
One number for each entry, in %.

170 (CCAACAAGGAAGACGAAAATT; chemistry not given here; listed as Homo sapiens) [compound 170] ... 284.062

Hi! Can you tell me per cell luciferase yield (%) for each of these substances?
1. 176 (GUUGCAAACUUAUCGAGGATT; chemistry not given here; listed as Homo sapiens) [compound 176]
2. 96 (ACACUCUUGUGGUCAAGAATT; chemistry not given here; listed as Homo sapiens) [compound 96]
3. 119 (CUGCCGCAACAAUAAGAAATT; chemistry not given here; listed as Homo sapiens) [compound 119]
4. 146 (GACCUAUACUCAUUCUGCATT; chemistry not given here; listed as Homo sapiens) [compound 146]

1: 186.786; 2: 227.741; 3: 171.198; 4: 171.308

Origin of values: patent US20160319277A1
